target: hY1R (Homo sapiens, UniProt P25929); construct: endogenous in cells; host or cells: SK-N-MC neuroblastoma cells; experiment: Y1R competition binding with [^3H]UR-MK299 on SK-N-MC neuroblastoma cells; details: displacement of [^3H]UR-MK299, SK-N-MC neuroblastoma cells
Sequence (P25929 whole entry): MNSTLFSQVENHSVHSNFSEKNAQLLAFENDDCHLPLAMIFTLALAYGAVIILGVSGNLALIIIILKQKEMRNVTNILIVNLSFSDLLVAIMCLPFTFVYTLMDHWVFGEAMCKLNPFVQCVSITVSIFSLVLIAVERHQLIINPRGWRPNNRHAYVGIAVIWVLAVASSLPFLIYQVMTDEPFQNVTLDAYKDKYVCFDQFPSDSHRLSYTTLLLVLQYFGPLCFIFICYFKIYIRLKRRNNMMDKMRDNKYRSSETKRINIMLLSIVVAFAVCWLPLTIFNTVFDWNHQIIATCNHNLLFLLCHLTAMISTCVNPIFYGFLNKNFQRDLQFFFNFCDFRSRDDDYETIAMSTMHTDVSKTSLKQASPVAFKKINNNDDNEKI
quantity: Ki (nM)
Give the number; nM is assumed, so skip it.

Req: Suppose we examine the compound C#CCNC(=O)N=C(N)NCCC[C@@H](NC(=O)C(c1ccccc1)c1ccccc1)C(=O)NCc1ccc(O)cc1 ; what Ki value has been reported?
Resp: 0.94

Req: Suppose we examine the compound N/C(=N/C(=O)NCc1cn(CCOCCF)nn1)NCCC[C@@H](NC(=O)C(c1ccccc1)c1ccccc1)C(=O)NCc1ccc(O)cc1 ; what Ki value has been reported?
Resp: 2.8

Req: Suppose we examine the compound N/C(=N/C(=O)NCc1cn([C@@H]2OC(CF)[C@@H](O)C(O)C2O)nn1)NCCC[C@@H](NC(=O)C(c1ccccc1)c1ccccc1)C(=O)NCc1ccc(O)cc1 (stereo partly shown) ; what Ki value has been reported?
Resp: 208

Req: Suppose we examine the compound N/C(=N/C(=O)NCc1cn(CCOCCOCCOCCF)nn1)NCCC[C@@H](NC(=O)C(c1ccccc1)c1ccccc1)C(=O)NCc1ccc(O)cc1 ; what Ki value has been reported?
Resp: 29
